- Target or system: Estrogen Receptor (ERα) in MCF-7 human ductal carcinoma breast cell line (Homo sapiens, UniProt P03372)
- Construct: endogenous in cells; host or cells: MCF-7
- Sequence (P03372 whole entry): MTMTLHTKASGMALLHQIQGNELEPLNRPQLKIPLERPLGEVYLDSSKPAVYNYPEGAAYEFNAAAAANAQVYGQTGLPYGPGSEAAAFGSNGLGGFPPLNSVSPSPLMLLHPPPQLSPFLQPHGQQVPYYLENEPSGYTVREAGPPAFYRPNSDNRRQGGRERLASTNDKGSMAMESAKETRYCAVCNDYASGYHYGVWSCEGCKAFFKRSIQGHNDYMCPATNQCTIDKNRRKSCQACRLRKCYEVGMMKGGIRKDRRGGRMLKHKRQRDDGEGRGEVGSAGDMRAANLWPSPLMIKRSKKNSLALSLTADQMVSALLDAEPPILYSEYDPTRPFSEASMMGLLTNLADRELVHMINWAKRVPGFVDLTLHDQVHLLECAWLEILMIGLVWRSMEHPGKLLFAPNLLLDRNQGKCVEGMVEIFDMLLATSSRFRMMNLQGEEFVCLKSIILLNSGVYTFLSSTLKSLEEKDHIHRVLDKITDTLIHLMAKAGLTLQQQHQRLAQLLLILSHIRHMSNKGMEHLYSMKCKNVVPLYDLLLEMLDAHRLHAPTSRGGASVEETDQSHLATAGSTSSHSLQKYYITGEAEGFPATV
- Procedure summary: MCF-7 ER degradation assay (cell based immuno-fluorescence)
- Test parameters: MCF-7 cells, 18-22 hours incubation, 50% reduction of ERα expression; single experiment or average of two or more; read-out: MCF-7 ER degradation IC50
Observable: DC50 (nM)
# number only, unit nM dropped from output

Example entries begin here.
INSERT INTO assay_data (substance_smiles, assay_result) VALUES
  ('Cc1ncsc1-c1ccc(CNC(=O)[C@@H]2C[C@@H](O)CN2C(=O)[C@@H](NC(=O)COCCCCCOc2cc(F)c([C@@H]3c4[nH]c5ccccc5c4C[C@@H](C)N3CC(C)(C)F)c(F)c2)C(C)(C)C)cc1', 1),
  ('COC(=O)[C@@H](C)CN1[C@H](c2c(F)cc(OCCOCCOCCOCC(=O)N[C@H](C(=O)N3C[C@H](O)C[C@H]3C(=O)NCc3ccc(-c4scnc4C)cc3)C(C)(C)C)cc2F)c2[nH]c3ccccc3c2C[C@H]1C', 2.4),
  ('Cc1ncsc1-c1ccc(CNC(=O)[C@@H]2C[C@@H](O)CN2C(=O)[C@@H](NC(=O)COCc2ccc(C(=O)Nc3cc(F)c([C@@H]4c5[nH]c6ccccc6c5C[C@@H](C)N4CC(C)(C)F)c(F)c3)nc2)C(C)(C)C)cc1', 0.5),
  ('Cc1ncsc1-c1ccc(CNC(=O)[C@@H]2C[C@@H](O)CN2C(=O)[C@@H](NC(=O)COCCOCCCCCOc2cnc([C@@H]3c4[nH]c5ccccc5c4C[C@@H](C)N3CC(F)(F)F)c(F)c2)C(C)(C)C)cc1', 4.4);

Value of DC50 reported for the compound Cc1ncsc1-c1ccc([C@H](C)NC(=O)[C@@H]2C[C@@H](O)CN2C(=O)[C@@H](NC(=O)COCCOCCCCCOc2cc(F)c([C@@H]3c4[nH]c5ccccc5c4C[C@@H](C)N3CC(C)(C)F)c(F)c2)C(C)(C)C)cc1 is 1.5

----------
Listed compounds paired with reported DC50
- Target or system: Estrogen Receptor (ERα) in MCF-7 human ductal carcinoma breast cell line (Homo sapiens, UniProt P03372)
- Construct: endogenous in cells; host or cells: MCF-7
- Procedure summary: MCF-7 ER degradation assay (cell based immuno-fluorescence)
- Test parameters: MCF-7 cells, 18-22 hours incubation, 50% reduction of ERα expression; single experiment or average of two or more; read-out: MCF-7 ER degradation IC50
# number only, unit nM dropped from output

INSERT INTO assay_data (substance_smiles, observable, assay_result) VALUES
  ('Cc1ncsc1-c1ccc(CNC(=O)[C@@H]2C[C@@H](O)CN2C(=O)[C@@H](NC(=O)CCCCCCCCCOc2cc(F)c([C@@H]3c4[nH]c5ccccc5c4C[C@@H](C)N3CC(C)(C)F)c(F)c2)C(C)(C)C)cc1', 'DC50', 3.2);

Value of DC50 reported for the compound Cc1ncsc1-c1ccc(CNC(=O)[C@@H]2C[C@@H](O)CN2C(=O)[C@@H](NC(=O)Cc2ccc(OCCOCCNC(=O)/C=C/c3cc(F)c([C@@H]4c5[nH]c6ccccc6c5C[C@@H](C)N4CC(C)(C)F)c(F)c3)cc2)C(C)(C)C)cc1 is 2.2

Value of DC50 reported for the compound Cc1ncsc1-c1ccc(CNC(=O)[C@@H]2C[C@@H](O)CN2C(=O)[C@@H](NC(=O)CCCN2CCN(CCCOc3cc(F)c([C@@H]4c5[nH]c6ccccc6c5C[C@@H](C)N4CC(C)(C)F)c(F)c3)CC2)C(C)(C)C)cc1 is 0.7

Value of DC50 reported for the compound Cc1ncsc1-c1ccc(CNC(=O)[C@@H]2C[C@@H](O)CN2C(=O)[C@@H](NC(=O)c2ccc(N3CCN(CCNC(=O)/C=C/c4cc(F)c([C@@H]5c6[nH]c7ccccc7c6C[C@@H](C)N5CC(C)(C)F)c(F)c4)CC3)cc2)C(C)(C)C)cc1 is 4.5

Value of DC50 reported for the compound Cc1ncsc1-c1ccc(CNC(=O)[C@@H]2C[C@@H](O)CN2C(=O)[C@@H](NC(=O)COCCOCCOCCCCNC(=O)c2cc(F)c([C@@H]3c4[nH]c5ccccc5c4C[C@@H](C)N3CC(C)(C)F)c(F)c2)C(C)(C)C)cc1 is 0.6

Value of DC50 reported for the compound Cc1ncsc1-c1ccc(CNC(=O)[C@@H]2C[C@@H](O)CN2C(=O)[C@@H](NC(=O)CCOCCCCCCCOc2cc(F)c([C@@H]3c4[nH]c5ccccc5c4C[C@@H](C)N3CC(C)(C)F)c(F)c2)C(C)(C)C)cc1 is 3.4

Value of DC50 reported for the compound Cc1ncsc1-c1ccc(CNC(=O)[C@@H]2C[C@@H](O)CN2C(=O)[C@@H](NC(=O)c2ccc(COc3cc(F)c([C@@H]4c5[nH]c6ccccc6c5C[C@@H](C)N4CC(C)(C)F)c(F)c3)cc2)C(C)(C)C)cc1 is 1

Value of DC50 reported for the compound Cc1ncsc1-c1ccc(CNC(=O)[C@@H]2C[C@@H](O)CN2C(=O)[C@@H](NC(=O)CCCc2ccc(COc3cc(F)c([C@@H]4c5[nH]c6ccccc6c5C[C@@H](C)N4CC(C)(C)F)c(F)c3)nc2)C(C)(C)C)cc1 is 0.9
